test: protein stability index of a GFP-peptide fusion (GPS, HEK-293T) (PSI 1-6); higher = more stable; conditions: treatment: MLN4924 1 uM, 8 h; c terminus: a fixed tail appended;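 note: 24-mer peptide tiles fused after GFP, lentivirally expressed, FACS-sorted into six equal bins by GFP/DsRed ratio, decoded by Illumina sequencing, PSI is the read-weighted mean bin number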
Form field: protein stability index (one value per entry).

{"columns": ["ITEM SEQUENCE", "protein stability index"],
 "data": [
  ["PLTSVCYPQDLPRPLRSREFPQFE [TRAF3IP2]", 3.62],
  ["LKGYPSLMRSQSPKAQPQTWKSGK [TRIM29]", 3.93],
  ["MPSGSEEKILRELSEEEEDEEEEE [KCNA4]", 5.69],
  ["YYKPGLLMMCFILPTLVPWYFWGE [SCD]", 2.83],
  ["FTIHNYSHSRERPYKCVQPDCGKA [PLAGL1]", 2.89],
  ["CQTGGVEDQEEWHAQVVEELSNFK [ZBED1]", 5.6],
  ["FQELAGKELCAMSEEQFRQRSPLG [SPDEF]", 3.59],
  ["KEAKEFLVQLRNMVQQIQENSVEF [TRIM9]", 2.41],
  ["MATTVTCTRFTDEYQLYEDIGKGA [CAMK2B]", 3.31],
  ["ALRKTGQYSGMLDCARRILAREGV [SLC25A25]", 2.27]
]}

For ILVNLQGTVVFLLSLFIPESPRWL [SLC22A15] the sequence record lists protein stability index as 3.23

Query ITKQGDGVDFLSWFLNALHSALGG [USP39] yields protein stability index of 2.11

response.value for SSGEDDDFKSCPQGPQGREGLAFL [PWWP2B] (field: protein stability index) = 4.85

Entry MYQELMEMCHKPDVELLQDLGDIV [TRIM43] — recorded protein stability index = 2.71

According to the records, this sequence RVQGVLRGRAREREQLQAEASERF [HES6] displays protein stability index of 4.48

---

assay: protein stability index of a GFP-peptide fusion (GPS, HEK-293T) (PSI 1-6); higher = more stable; details: treatment: DMSO; c terminus: a fixed tail appended
protein stability index listing for selected sequences.

See these solved cases before continuing.
{"columns": ["ITEM SEQUENCE", "EXPERIMENTAL VALUE"],
 "data": [
  ["VCLEYLKEPVIIECGHNFCKACIT [TRIM39]", 2.38],
  ["GAIAQSSIYPMEVLKTRMALRKTG [SLC25A25]", 3.54],
  ["LLLLFGVAGGLVACRVTELQQQPL [LRRC59]", 2.77],
  ["MKDISNLEENDETRFILSKVPSEA [SLC6A17]", 4.91],
  ["MPSGSEEKILRELSEEEEDEEEEE [KCNA4]", 5.53],
  ["LTKHEWTEALGCDPPLSQDERTHR [ZNF8]", 4.6]
]}

Now consider the entry below.
Just so you know, measured protein stability index for SSGAGSSPPAAPCPPPPGPAAAPE [ZBED3] came out at 5.36

---

Known protein stability index of a selection of sequences
experiment: protein stability index of a GFP-peptide fusion (GPS, HEK-293T) (PSI 1-6); higher = more stable; conditions: treatment: DMSO; c terminus: a fixed tail appended
Output spec: single numeric token, no unit.

Guide cases for protein stability index, answers given:
{"columns": ["ITEM SEQUENCE", "EXPERIMENTAL VALUE"],
 "data": [
  ["AFACQVAGCCQVFDALDDYEHHYH [ZNF511]", 2.97],
  ["EGSDYINASFIDGYRQQKAYIATQ [PTPRD]", 3.18],
  ["RSYIKLFQAPCQRCGKFLQDGLPP [MED27]", 2.19],
  ["ELHRRLDEEQQVLLSRLEEEEQDI [TRIM39]", 5.43],
  ["EYQLYEDIGKGAFSVVRRCVKLCT [CAMK2B]", 2.45],
  ["LFEEPEDPSNRSFFSEIISSVSDV [PPP2R2C]", 4.24],
  ["GSELKDSIPVTELSASGPFESHDL [POMP]", 5.28],
  ["RCLHMFLQDEIIDKSYTPSKIRHA [SNX3]", 2.05],
  ["SKSNLGWTPLHLACYFGHRQVVQD [OSBPL1A]", 2.62]
]}

Now take the following sequence into account.
Item: NNLTDRIVVIPGKVEEVSLPEQVD [CARM1] | protein stability index: 5.1

---

Reported protein stability index values follow for various sequences
assay: protein stability index of a GFP-peptide fusion (GPS, HEK-293T) (PSI 1-6); higher = more stable; settings: treatment: MLN4924 1 uM, 8 h; c terminus: a fixed tail appended
Lab note: write the figure by itself, no unit.

{"columns": ["ITEM SEQUENCE", "EXPERIMENTAL VALUE"],
 "data": [
  ["PEGQELQKLGSGAWDNPAYSGPPS [PKD2L1]", 4.93]
]}

Field protein stability index (entry GLGLEDADWTQGLPWRFEELLTCS [TEX19] ) reads 2.76

Input LEYLYTDSCCPAGIFQAMCLLICA [RHOBTB3] . Output protein stability index: 3.19

---

experiment: protein stability index of a GFP-peptide fusion (GPS, HEK-293T) (PSI 1-6); higher = more stable; conditions: treatment: DMSO; c terminus: a fixed tail appended
METRIC: protein stability index
// return a plain number; no unit text

Use the examples below as a reference point.
{"columns": ["ITEM SEQUENCE", "protein stability index"],
 "data": [
  ["PSWAALNSSTWGSLKQALKGLSVE [SNX8]", 2.94],
  ["NLLALGTDRKLDDGDDKVFRRAPS [PPFIA4]", 4.51],
  ["LTVNTEAQQLLREFEEATGEAGWG [FOXJ1]", 4.55]
]}

Measured protein stability index of RSIPDTQLEQVIESQKANQCAVLI [ACSBG2] : 3.54

So, TDAPEQFISQVTVLKYFSHYMEEN [PLK2] ? Its protein stability index was 2.09

protein stability index for NEYAYLPLHVHEEEGILVAVGQDC [DCAF4] is 3.75

---

assay: protein stability index of a GFP-peptide fusion (GPS, HEK-293T) (PSI 1-6); higher = more stable; conditions: treatment: DMSO; c terminus: a fixed tail appended
Note to self: values exactly at 3 are Fulfilled. So protein stability index at or above 3 is Fulfilled, below is Not fulfilled.

Record excerpt, results attached:
{"columns": ["ITEM SEQUENCE", "ASSIGNED CLASS"],
 "data": [
  ["YLDLPGSRQGSAEALRALQEGLWL [PKD2L1]", "Not fulfilled"],
  ["TSFEPEALGNLVEGMDFHRFYFEN [CAMK2B]", "Fulfilled"],
  ["KASSRKPFGILSPNVLCSMSGKSP [FBXO34]", "Not fulfilled"],
  ["ILLQEIPIRSISLRSCYFSDPDCS [FBXO39]", "Not fulfilled"]
]}

Okay, next one:
Inquiry: # check: protein stability index of VHYMIHEPEPHILLFRRPLPKKPK [CKS1B] is greater than or equal to 3
Reply text: Not fulfilled

---

experiment: protein stability index of a GFP-peptide fusion (GPS, HEK-293T) (PSI 1-6); higher = more stable; details: treatment: DMSO; c terminus: a fixed tail appended
METRIC: protein stability index
Number, no unit, nothing else.

{"columns": ["ITEM SEQUENCE", "METRIC", "EXPERIMENTAL VALUE"],
 "data": [
  ["IDIVAIIPYFITLGTELAERQGNG [KCNA3]", "protein stability index", 2.97],
  ["LAVAGGPRKTAAPVNALVSHLLVV [ESRRA]", "protein stability index", 2.92],
  ["SRLWDSRLRHYLGSRYDARRGVSD [DNAAF3]", "protein stability index", 3.09],
  ["WLMTYVGAVFNGITLLILAELLIF [RTN3]", "protein stability index", 2.49],
  ["LNILIQSLDWETFEQYCAWQLFLA [INTS3]", "protein stability index", 3.04]
]}

Lab note: measured protein stability index of SSTTGLFYSAEIICAIEYLHSKEI [PRKX] was 3.13

Just so you know, measured protein stability index for TMSRSLDGASVNENHEIYMKDSMS [EPB41L3] came out at 5

---

assay: protein stability index of a GFP-peptide fusion (GPS, HEK-293T) (PSI 1-6); higher = more stable; settings: treatment: MLN4924 1 uM, 8 h; c terminus: a fixed tail appended
Each record here notes measured protein stability index.
In your answer, state the number alone without any accompanying words.

{"columns": ["ITEM SEQUENCE", "EXPERIMENTAL VALUE"],
 "data": [
  ["TYRRLLEDGEDFNLGDALDSSNSM [KRT18]", 4.52],
  ["KSWLNGFRPKDQTSVGMSFVAGGI [SLC25A39]", 2.43]
]}

The reported protein stability index of the sequence DPDEVARRWGKRKNKPKMNYEKLS [ETS1] was 4.22

Briefly, protein stability index measured for AEPAPRAREGGGCGRSEVRPVAPR [SMAD6] : 4.15

Consider ELQIELLRETKRKYESVLQLGRAL [ARFIP2] . Its measured protein stability index is 2.55

Reported protein stability index of LTIRESILINNGSRIKGWWVFHHY [TMEM120A] : 2.73

Sample ADRPFSAPWWFWLSLTGVSLAGAL [POMT2] ; protein stability index observed: 3

Short answer for SLGQLPLPPIPHVFSAGTGSAILP [PLAGL1] : protein stability index was 3.07

# protein stability index (sequence: RLLRDSEAFCHANCSGPAPAAKPD [P3H4] ) is 4.01

According to the records, this sequence LQQQPLCTSVNTIYDNAVQGLRRH [LRRC59] displays protein stability index of 3.83

The sequence FPRMLLVDRLPGLQGALDLLAVLC [ZSWIM9] showed protein stability index equal to 2.25

The measured protein stability index associated with SLFKLKPLSNKTATDDTGGKDPRN [PLD5] reads 4.65

The sequence listed as WLSYRLLKASEPGLFAVGEHTGEV [PCDHGA10] has a reported protein stability index of 2.31

// field: protein stability index; key: FLTLEKFTIHNYSHSRERPYKCVQ [PLAGL1] ; value = 2.13

Entry NTAKSTSRVTAFLDDLSQKLKPLG [NLN] ; protein stability index = 3.35

Per the record, SLKQALKGLSVEFALLADKAAQQG [SNX8] has protein stability index of 2.52

Memo: QSWNNQAWNSPFYNCGEESLQSCM [NANOGP8] , reported protein stability index: 2.48

The sequence listed as MKQGGAALEGSALANGRALSAGSP [DLX1] shows protein stability index equal to 4.72

Per the records, this sequence ( IDIVAIIPYFITLGTELAERQGNG [KCNA3] ) has protein stability index equal to 3.29

For reference, reported protein stability index for TASFRTSKYLLEEWFQNCYARYHQ [TEKT4] stands at 2.22
